System: C. albicans ATCC 90028
ASSAY_OVERVIEW: Broth microdilution assay, C. albicans
Assay type: cell-based, Candida albicans
PROTOCOL_CONDITIONS: 50 µM, 48 h at 35°C, inhibition of growth, mean ± SD
Kindly return class 1 if reported Inhibitory effect (%) C. albicans ATCC 90028 is no lower than -20%; return class 0 if it is lower.

In plain terms: is recorded Inhibitory effect (%) C. albicans ATCC 90028 at least -20% for CC(C)C12CCC3(COC(=O)C4CCCCC4)CCC4(C)C(=C31)C(CC1C3(C)CCC(OC(=O)C5CCCCC5)C(C)(C)C3CCC14C)n1c(=O)n(C)c(=O)n12 (centres unmarked) ? class 0

In plain terms: is recorded Inhibitory effect (%) C. albicans ATCC 90028 at least -20% for C=C(C)C1CCC2(COC(C)=O)CCC3(C)C(CCC4C5(C)CCC(OC(C)=O)C(C)(C)C5CCC43C)C12 (centres unmarked) ? class 1

In plain terms: is recorded Inhibitory effect (%) C. albicans ATCC 90028 at least -20% for C=C(C)[C@@H]1CC[C@]2(C(=O)OC)CC[C@]3(C)[C@H](CC[C@@H]4[C@@]5(C)CCC(=O)C(C)(C)[C@@H]5CC[C@]43C)[C@@H]12 ? class 0

In plain terms: is recorded Inhibitory effect (%) C. albicans ATCC 90028 at least -20% for CC(=O)OCC12CCC3(C(C)C)C1=C1C(CC4C5(C)CCC(OC(C)=O)C(C)(C)C5CCC4(C)C1(C)CC2)n1c(=O)n(-c2ccc(F)cc2)c(=O)n13 (centres unmarked) ? class 1

In plain terms: is recorded Inhibitory effect (%) C. albicans ATCC 90028 at least -20% for C=C(C)[C@@H]1CC[C@]2(C#N)CC[C@]3(C)[C@H](CC[C@@H]4[C@@]5(C)CCC(=NOC(C)=O)C(C)(C)[C@@H]5CC[C@]43C)[C@@H]12 ? class 0

In plain terms: is recorded Inhibitory effect (%) C. albicans ATCC 90028 at least -20% for CC(C)C12CCC3(CO)CCC4(C)C(=C31)C(CC1C3(C)CCC(O)C(C)(C)C3CCC14C)n1c(=O)n(-c3ccccc3)c(=O)n12 (centres unmarked) ? class 0

In plain terms: is recorded Inhibitory effect (%) C. albicans ATCC 90028 at least -20% for CCC(=O)OCC12CCC3(C(C)C)C1=C1C(CC4C5(C)CCC(OC(=O)CC)C(C)(C)C5CCC4(C)C1(C)CC2)n1c(=O)n(C)c(=O)n13 (centres unmarked) ? class 0

In plain terms: is recorded Inhibitory effect (%) C. albicans ATCC 90028 at least -20% for C=C(C)[C@@H]1CC[C@]2(C(=O)OC)CC[C@]3(C)[C@H](CC[C@@H]4[C@@]5(C)CC[C@H](O)C(C)(C)[C@@H]5CC[C@]43C)[C@@H]12 ? class 1

In plain terms: is recorded Inhibitory effect (%) C. albicans ATCC 90028 at least -20% for C=C(C)C1CCC2(CO)CCC3(C)C(CCC4C5(C)CCC(OC(C)=O)C(C)(C)C5CCC43C)C12 (centres unmarked) ? class 1

In plain terms: is recorded Inhibitory effect (%) C. albicans ATCC 90028 at least -20% for C=C(C)[C@@H]1CC[C@]2(C#N)CC[C@]3(C)[C@H](CC[C@@H]4[C@@]5(C)CC[C@H](OC(C)=O)C(C)(C)[C@@H]5CC[C@]43C)[C@@H]12 ? class 0

====

Test system: C. albicans ATCC 90028
ASSAY_OVERVIEW: Broth microdilution assay, C. albicans
Format: cell-based, Candida albicans
PROTOCOL_CONDITIONS: 50 µM, 48 h at 35°C, inhibition of growth, mean ± SD
Kindly return Y if reported Inhibitory effect (%) C. albicans ATCC 90028 is no lower than 10%; return N if it is lower.

In plain terms: is recorded Inhibitory effect (%) C. albicans ATCC 90028 at least 10% for C=C(C)C1CCC2(COS(C)(=O)=O)CCC3(C)C(CCC4C5(C)CCC(OC(C)=O)C(C)(C)C5CCC43C)C12 (centres unmarked) [Compound 13] ? N

In plain terms: is recorded Inhibitory effect (%) C. albicans ATCC 90028 at least 10% for CCCC(=O)OCC12CCC3(C(C)C)C1=C1C(CC4C5(C)CCC(OC(=O)CCC)C(C)(C)C5CCC4(C)C1(C)CC2)n1c(=O)n(C)c(=O)n13 (centres unmarked) [Compound 46] ? N

In plain terms: is recorded Inhibitory effect (%) C. albicans ATCC 90028 at least 10% for C=C(C)[C@@H]1CC[C@]2(COC(=O)C3C(C=C(C)C)C3(C)C)CC[C@]3(C)[C@H](CC[C@@H]4[C@@]5(C)CC[C@H](O)C(C)(C)[C@@H]5CC[C@]43C)[C@@H]12 (some centres unmarked) [Compound 3, 28-O-chrysanthemoylbetulin] ? Y

In plain terms: is recorded Inhibitory effect (%) C. albicans ATCC 90028 at least 10% for CC(C)C12CCC3(COC(=O)C4CCCCC4)CCC4(C)C(=C31)C(CC1C3(C)CCC(OC(=O)C5CCCCC5)C(C)(C)C3CCC14C)n1c(=O)n(C(C)(C)C)c(=O)n12 (centres unmarked) [Compound 51] ? N

In plain terms: is recorded Inhibitory effect (%) C. albicans ATCC 90028 at least 10% for CC(C)C(=O)OCC12CCC3(C(C)C)C1=C1C(CC4C5(C)CCC(OC(=O)C(C)C)C(C)(C)C5CCC4(C)C1(C)CC2)n1c(=O)n(C)c(=O)n13 (centres unmarked) [Compound 47] ? Y

====

ASSAY_OVERVIEW: in vitro
Type: cell-based, human
PROTOCOL_CONDITIONS: human, Cytotoxicity (%) Huh-7 cells
METRIC: cytotoxicity at 24 h, 50 µM (%)
Respond numerically; units are % and should not be typed.

What value of cytotoxicity at 24 h, 50 µM has been reported for the following compound? C=C(C)[C@@H]1CC[C@]2(C=O)CC[C@]3(C)C(CCC4[C@@]5(C)CC[C@H](O)C(C)(C)C5CC[C@]43C)C12 (stereo partly drawn) 61

What value of cytotoxicity at 24 h, 50 µM has been reported for the following compound? C=C(C)C1CCC2(C=NO)CCC3(C)C(CCC4C5(C)CCC(O)C(C)(C)C5CCC43C)C12 (stereo not drawn) 61

What value of cytotoxicity at 24 h, 50 µM has been reported for the following compound? C=C(C)[C@@H]1CC[C@]2(C(=O)Oc3ccc(C=O)cc3OC)CC[C@]3(C)[C@H](CC[C@@H]4[C@@]5(C)CCC(=O)C(C)(C)C5CC[C@]43C)[C@@H]12 (stereo partly drawn) [Compound 26, vanillinyl betulonate] -10.1

====

Task for the reader: assign each of the following compounds its reported Inhibitory effect (%) C. albicans ATCC 90028.
Tested on: C. albicans ATCC 90028
ASSAY_OVERVIEW: Broth microdilution assay, C. albicans
Type: cell-based, Candida albicans
PROTOCOL_CONDITIONS: 50 µM, 48 h at 35°C, inhibition of growth, mean ± SD
Respond numerically; units are % and should not be typed.

What value of Inhibitory effect (%) C. albicans ATCC 90028 has been reported for the following compound? CC(=O)OCC12CCC3(C(C)C)C1=C1C(CC4C5(C)CCC(OC(C)=O)C(C)(C)C5CCC4(C)C1(C)CC2)n1c(=O)n(-c2ccc4c(c2)CCC4)c(=O)n13 (centres unmarked) 10.7

What value of Inhibitory effect (%) C. albicans ATCC 90028 has been reported for the following compound? CC(=O)OCC12CCC3(C(C)C)C1=C1C(CC4C5(C)CCC(OC(C)=O)C(C)(C)C5CCC4(C)C1(C)CC2)n1c(=O)n(Cc2ccccc2)c(=O)n13 (centres unmarked) 4.4

What value of Inhibitory effect (%) C. albicans ATCC 90028 has been reported for the following compound? C=C(C)[C@@H]1CC[C@]2(COC(C)=O)CC[C@]3(C)[C@H](CC[C@@H]4[C@@]5(C)CC[C@H](O)C(C)(C)[C@@H]5CC[C@]43C)[C@@H]12 3.0

What value of Inhibitory effect (%) C. albicans ATCC 90028 has been reported for the following compound? C=C(C)[C@@H]1CC[C@]2(C=NO)CC[C@]3(C)[C@H](CC[C@@H]4[C@@]5(C)CCC(=NO)C(C)(C)[C@@H]5CC[C@]43C)[C@@H]12 13.9

What value of Inhibitory effect (%) C. albicans ATCC 90028 has been reported for the following compound? C=C(C)[C@@H]1CC[C@]2(COC(=O)c3cccnc3)CC[C@]3(C)[C@H](CC[C@@H]4[C@@]5(C)CC[C@H](O)C(C)(C)[C@@H]5CC[C@]43C)[C@@H]12 36.7

====

System: Huh-7 cells
ASSAY_OVERVIEW: in vitro
Format: cell-based, human
PROTOCOL_CONDITIONS: 50 µM, 24 h exposure, ATP content, 5% FBS
Task for the reader: assign each of the following compounds its reported Cytotoxicity (%) Huh-7 cells.
Respond numerically; units are % and should not be typed.

What value of Cytotoxicity (%) Huh-7 cells has been reported for the following compound? C=C(C)C1CCC2(C=O)CCC3(C)C(CCC4C5(C)CCC(=O)C(C)(C)C5CCC43C)C12 (stereo not drawn) 4.1

What value of Cytotoxicity (%) Huh-7 cells has been reported for the following compound? CC(=O)OCC12CCC3(C(C)C)C1=C1C(CC4C5(C)CCC(OC(C)=O)C(C)(C)C5CCC4(C)C1(C)CC2)n1c(=O)n(-c2cccc(Cl)c2)c(=O)n13 (stereo not drawn) 1.5

What value of Cytotoxicity (%) Huh-7 cells has been reported for the following compound? C=C(C)[C@@H]1CC[C@]2(C=NO)CC[C@]3(C)[C@H](CC[C@@H]4[C@@]5(C)CCC(=NO)C(C)(C)[C@@H]5CC[C@]43C)[C@@H]12 42.4

What value of Cytotoxicity (%) Huh-7 cells has been reported for the following compound? C=C(C)[C@@H]1CC[C@]2(CO)CC[C@]3(C)[C@H](CC[C@@H]4[C@@]5(C)CC[C@H](O)C(C)(C)[C@@H]5CC[C@]43C)[C@@H]12 13.7

What value of Cytotoxicity (%) Huh-7 cells has been reported for the following compound? C=C(C)C1CCC2(CO)CCC3(C)C(CCC4C5(C)CCC(OC(C)=O)C(C)(C)C5CCC43C)C12 (stereo not drawn) 3.8

What value of Cytotoxicity (%) Huh-7 cells has been reported for the following compound? CC(=O)OCC12CCC3(C(C)C)C1=C1C(CC4C5(C)CCC(OC(C)=O)C(C)(C)C5CCC4(C)C1(C)CC2)n1c(=O)n(-c2ccccc2)c(=O)n13 (stereo not drawn) 1.3

What value of Cytotoxicity (%) Huh-7 cells has been reported for the following compound? C=C(C)C1CCC2(COC(C)=O)CCC3(C)C(CCC4C5(C)CCC(=O)C(C)(C)C5CCC43C)C12 (stereo not drawn) -3.9

What value of Cytotoxicity (%) Huh-7 cells has been reported for the following compound? C=C(C)[C@@H]1CC[C@]2(C(=O)O)CC[C@]3(C)[C@H](CC[C@@H]4[C@@]5(C)CC[C@H](O)C(C)(C)[C@@H]5CC[C@]43C)[C@@H]12 31.6

What value of Cytotoxicity (%) Huh-7 cells has been reported for the following compound? CC(C)C12CCC3(COC(=O)C4CCCCC4)CCC4(C)C(=C31)C(CC1C3(C)CCC(OC(=O)C5CCCCC5)C(C)(C)C3CCC14C)n1c(=O)n(C(C)(C)C)c(=O)n12 (stereo not drawn) -10.0

What value of Cytotoxicity (%) Huh-7 cells has been reported for the following compound? C=C(C)[C@@H]1CC[C@]2(C#N)CC[C@]3(C)[C@H](CC[C@@H]4[C@@]5(C)CC[C@H](OC(C)=O)C(C)(C)[C@@H]5CC[C@]43C)[C@@H]12 21.6

What value of Cytotoxicity (%) Huh-7 cells has been reported for the following compound? CCCC(=O)OCC12CCC3(C(C)C)C1=C1C(CC4C5(C)CCC(OC(=O)CCC)C(C)(C)C5CCC4(C)C1(C)CC2)n1c(=O)n(C)c(=O)n13 (stereo not drawn) 6.4

What value of Cytotoxicity (%) Huh-7 cells has been reported for the following compound? COc1cccc(-n2c(=O)n3n(c2=O)C2(C(C)C)CCC4(COC(C)=O)CCC5(C)C(=C42)C3CC2C3(C)CCC(OC(C)=O)C(C)(C)C3CCC25C)c1 (stereo not drawn) 8.5
